Could you please report measured drug sensitivity score for the items listed next?
test system: Calu-3; test: drug sensitivity score (DSS) for viability; higher = more toxic; extreme values may be limits of the assay; settings: 72 h
Counter-ions that a name gives are not always drawn.

Recall and state the measured drug sensitivity score for CC1=CC(=C(c2ccc(N)cc2)c2ccc(N)cc2)C=CC1=N [basic-fuchsin] .
6.6

Recall and state the measured drug sensitivity score for O=C(NC1CCNCC1)c1n[nH]cc1NC(=O)c1c(Cl)cccc1Cl [AT-7519] .
5.9

Recall and state the measured drug sensitivity score for Nc1ccc2cc3ccc(N)cc3nc2c1 [proflavine-hemisulfate] .
1.6

Recall and state the measured drug sensitivity score for FC(F)OC(F)(F)C(F)Cl (stereo not given) [enflurane] .
0

Recall and state the measured drug sensitivity score for CN1[C@@H]2CC[C@H]1C[C@@H](OC(=O)C(CO)c1ccccc1)C2 (stereo not given in full) [ATROPINE SULFATE] .
0

Recall and state the measured drug sensitivity score for CCN(CC)CCNC(=O)c1ccccc1I [I-BZA2] .
0

Recall and state the measured drug sensitivity score for CCC[C@H](NC(=O)/C(C#N)=C/c1cccc(Br)n1)c1ccccc1 [WP1130] .
4

Recall and state the measured drug sensitivity score for COc1ccccc1CN[C@H]1CCCN[C@H]1c1ccccc1 .
0

Recall and state the measured drug sensitivity score for C=CC(=O)O [acrylate] .
0

Recall and state the measured drug sensitivity score for CC(C)(C)NS(=O)(=O)c1cncc(-c2cc(F)c3nc(N)nn3c2)c1 .
0

Recall and state the measured drug sensitivity score for CC/C(=C(/c1ccc(/C=C/C(=O)O)cc1)c1ccc2[nH]ncc2c1)c1ccc(F)cc1Cl [GDC-0810] .
0

Recall and state the measured drug sensitivity score for CCOC(=O)c1ccccc1OC(=O)CCCCCCCC(=O)Oc1ccccc1C(=O)OCC [TU-2100] .
0

Recall and state the measured drug sensitivity score for CNC(=O)c1cc(Oc2ccc(NC(=O)Nc3ccc(Cl)c(C(F)(F)F)c3)cc2)ccn1 [sorafenib] .
0.2

Recall and state the measured drug sensitivity score for Cc1cc(OCc2nnc(SC3CCCC3)n2-c2cccnc2)ccc1-c1ccc(S(C)(=O)=O)cc1 [NMS-873] .
7.1

Recall and state the measured drug sensitivity score for NC(=O)c1cccc(-c2cccc(OC(=O)NC3CCCCC3)c2)c1 [URB597] .
0

Recall and state the measured drug sensitivity score for O=C(O)[C@H](O)[C@@H](O)[C@H](O)[C@H](O)CO [sodium-gluconate] .
0

Recall and state the measured drug sensitivity score for COc1cc(C(=O)N2CCOCC2)cc(OC)c1OC [trimetozine] .
0

Recall and state the measured drug sensitivity score for O=C(CCCCCCCC(=O)NCCO)NCCO [adelmidrol] .
0

Recall and state the measured drug sensitivity score for CCCN1CCO[C@@H]2c3cc(O)ccc3OC[C@H]21 .
0

Recall and state the measured drug sensitivity score for COC(=O)C1=C(C)NC(C)=C(C(=O)OC2CCCN(Cc3ccccc3)C2)C1c1cccc([N+](=O)[O-])c1 (stereo not given) [benidipine] .
0.6

---

tested on: HepG2; assay: cell viability relative to DMSO; higher = less toxic; details: 72 h; 1 nM
Could you please report measured cell viability for the items listed next?
The reply must contain the numeric value and, after it, the unit.

Recall and state the measured cell viability for O=C(Nc1ccc(O)cc1)c1ccccc1O .
90.2%

Recall and state the measured cell viability for O=C(c1ccc(CN2CCOCC2)cc1)N1CCN(C2CC2)CC1 .
108%

Recall and state the measured cell viability for COc1ccc(/C=C\c2cc(OC)c(OC)c(OC)c2)cc1OP(=O)(O)O .
104%

Recall and state the measured cell viability for C[C@H](N)Cn1ccc2cc(F)c(Cl)cc21 .
99.5%

Recall and state the measured cell viability for CCCCCCCCNC(=O)/C(C#N)=C/c1cn(CCCN(C)C)c2ccccc12 .
96.5%

Recall and state the measured cell viability for Cc1nnc2n1-c1sc(CCC(=O)N3CCOCC3)cc1C(c1ccccc1Cl)=NC2 .
105%

Recall and state the measured cell viability for CN1CCC[C@@H]1CCO[C@](C)(c1ccccc1)c1ccc(Cl)cc1 .
108%

Recall and state the measured cell viability for CCC[C@H](NC(=O)/C(C#N)=C/c1cccc(Br)n1)c1ccccc1 .
99.8%
